Measured Kd, listed per entry.
target: human Mcl-1 (residues 171-320) (human, UniProt Q07820 171-320); experiment: ITC
Sequence (Q07820 171-320): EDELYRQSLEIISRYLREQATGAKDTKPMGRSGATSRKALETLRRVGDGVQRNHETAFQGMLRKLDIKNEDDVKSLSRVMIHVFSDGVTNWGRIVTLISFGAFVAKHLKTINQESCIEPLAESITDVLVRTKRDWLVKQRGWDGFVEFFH
Report as a plain number; the unit nM is understood.

What value of Kd has been recorded for this entry: SMRRLRAIGACLRAIGDDIQSRSEKS [HyBH3-only-2 BH3 motif peptide]
50

What value of Kd has been recorded for this entry: SNGETENLGRVLASFGDEINDKYRQV [HyBak1 BH3 motif peptide]
67

Please find the next binder below.
What value of Kd has been recorded for this entry: SRNGTVNKEVAHCLKRIGDDLVNNHQLN [HyBax BH3 motif peptide]
41
